As shown below, each of these molecules has a reported melting point value.

Study these solved cases before continuing.
COc1cc2c(Oc3ccc(NS(=O)(=O)c4c(F)cccc4F)cc3F)ccnc2cc1OCCCN1CCCCC1C (stereo not drawn)	132 to 134 °C
COc1cc2c(Oc3ccc(NS(=O)(=O)c4cc(F)ccc4F)cc3F)ccnc2cc1OCCCN1CCCCC1C (stereo not drawn)	120 to 122 °C
COc1cc2c(Oc3ccc(NS(=O)(=O)c4ccco4)cc3F)ccnc2cc1OCCCN1CCCCC1C (stereo not drawn)	118 to 119 °C
COc1cc2c(Oc3ccc(NS(=O)(=O)c4cc(Cl)ccc4Cl)cc3F)ccnc2cc1OCCCN1CCCC(C)C1 (stereo not drawn)	127 to 129 °C
COc1cc2c(Oc3ccc(NS(=O)(=O)c4ccccc4OC(F)(F)F)cc3F)ccnc2cc1OCCCN1CCCC(C)C1 (stereo not drawn)	128 to 130 °C

Switching to the query record.
Q: Specify reported melting point for the molecule shown: COc1cc2c(Oc3ccc(NS(=O)(=O)/C=C/c4ccccc4)cc3F)ccnc2cc1OCCCN1CCCC(C)C1 (stereo not drawn)
A: 104 to 106 °C
